# reported ΔTm; entries follow
assayed_system: Transcription intermediary factor 1-alpha (Homo sapiens) (UniProt O15164)
Sequence (O15164 whole entry): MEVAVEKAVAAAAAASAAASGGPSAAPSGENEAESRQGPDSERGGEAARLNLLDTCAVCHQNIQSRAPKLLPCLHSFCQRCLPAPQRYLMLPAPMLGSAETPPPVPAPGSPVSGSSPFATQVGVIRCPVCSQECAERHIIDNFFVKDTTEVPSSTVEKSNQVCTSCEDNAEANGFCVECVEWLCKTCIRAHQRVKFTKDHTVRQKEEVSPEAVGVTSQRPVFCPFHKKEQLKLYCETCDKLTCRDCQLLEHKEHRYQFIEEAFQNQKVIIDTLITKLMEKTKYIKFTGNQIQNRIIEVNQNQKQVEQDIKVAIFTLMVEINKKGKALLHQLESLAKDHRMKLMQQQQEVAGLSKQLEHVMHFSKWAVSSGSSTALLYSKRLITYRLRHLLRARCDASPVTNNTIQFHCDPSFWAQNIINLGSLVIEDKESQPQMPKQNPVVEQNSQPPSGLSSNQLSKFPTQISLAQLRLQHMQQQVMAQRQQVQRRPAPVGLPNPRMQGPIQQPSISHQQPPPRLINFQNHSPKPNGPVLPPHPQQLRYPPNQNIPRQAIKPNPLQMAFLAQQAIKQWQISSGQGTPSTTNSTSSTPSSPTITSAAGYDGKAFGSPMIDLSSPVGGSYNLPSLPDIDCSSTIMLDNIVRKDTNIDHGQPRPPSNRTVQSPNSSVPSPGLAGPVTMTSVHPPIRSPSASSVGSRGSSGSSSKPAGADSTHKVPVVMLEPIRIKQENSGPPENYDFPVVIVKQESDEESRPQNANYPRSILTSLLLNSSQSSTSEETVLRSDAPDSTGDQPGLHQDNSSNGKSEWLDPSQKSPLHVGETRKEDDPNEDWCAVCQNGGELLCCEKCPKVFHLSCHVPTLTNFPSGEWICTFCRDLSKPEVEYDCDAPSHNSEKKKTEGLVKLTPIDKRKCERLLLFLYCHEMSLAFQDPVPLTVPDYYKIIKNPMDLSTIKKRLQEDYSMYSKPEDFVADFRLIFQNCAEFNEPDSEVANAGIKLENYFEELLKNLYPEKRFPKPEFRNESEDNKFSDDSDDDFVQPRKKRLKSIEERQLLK
stated_conditions: Compound concentration 20.0 uM, Protein concentration 2.0 uM, Result type QC Liability
measure_name: ΔTm (°C)

1) Cn1nccc1-c1ccc(Sc2cccc(C3(C(N)=O)CCOCC3)c2)cc1 0.56
2) COc1ccc(N(C(=O)Nc2c(C)cccc2C)c2cc(Nc3ccc(N4CCN(C)CC4)cc3)ncn2)c(OC)c1 0.7
3) CN(C)CCCNc1ccnc(Nc2cccc(Cl)c2)n1 -4.21
4) Nc1nccc(-c2c(-c3ccc(F)cc3)ncn2C2CCN(Cc3ccon3)CC2)n1 -2.27
5) COc1cc(Cl)c(C(=O)N[C@@H](CN[C@H]2CC[C@@H](N)CC2)Cc2ccc(C#N)cc2)cc1-c1ccc(CN[C@H](C)c2ccc(C)cc2)o1 -2.42

###

assayed_system: Bromodomain-containing protein 4 (Homo sapiens) (UniProt O60885)
stated_conditions: Compound concentration 20.0 uM, Protein concentration 2.0 uM, Result type QC Liability
# reported ΔTm; entries follow

compound	ΔTm
O=C(O)c1cccc(C2=C(c3cc(Cl)ccc3OCc3ccc(F)cc3F)CCC2)n1	-0.65 °C
CCn1ccc(Nc2ncc3c(n2)-c2c(nn(C)c2-c2ccc(-c4cnn(C)c4)cc2Cl)CC3)n1	-1.73 °C
CC[C@@H]1C(=O)N(C)c2cnc(Nc3ccc(C(=O)NC4CCN(C)CC4)cc3OC)nc2N1C1CCCC1	6.02 °C
CC(=O)c1c(C)c2cnc(Nc3ccc(N4CCN(CCCCNC(=O)COc5cccc6c5C(=O)N(C5CCC(=O)NC5=O)C6=O)CC4)cn3)nc2n(C2CCCC2)c1=O (stereo not drawn)	-0.38 °C
CN1CCc2cc(Nc3ncc(C(F)(F)F)c(NCc4cc[nH]n4)n3)ccc2C1	-1.83 °C
CN1C(=O)c2ccccc2N(C)c2nc(Nc3cnn(C4CCNCC4)c3)ncc21	3.95 °C
CC(C)C(=O)N[C@@H]1CCN(C(=O)Nc2nc3c(s2)-c2nc(-c4ccccc4Cl)ncc2CC3)C1	-0.28 °C
C[C@@H]1CCNC(=O)c2cc3ccc(C(=O)Nc4nc5ccccc5n4CCCN(C)C)cc3n21	-0.87 °C

###

assayed_system: Bromodomain-containing protein 4 (Homo sapiens)
stated_conditions: Compound concentration 20.0 uM, Protein concentration 2.0 uM, Result type QC Liability
Entries get a class label from measured ΔTm. See ranges: b0 = under -2 °C, b1 = from -2 °C up to 0 °C, b2 = 0 °C and over

1) C=C(F)C(=O)N1CCN(c2nc(OC[C@@H]3CCCN3C)nc3c2CCN(c2cccc4cccc(Cl)c24)C3)C[C@@H]1CC#N b2
2) CN(CC(=O)Nc1ccc(F)c(F)c1F)C(=O)c1ccc2c(c1)OCCO2 b0
3) N#Cc1cccc(-c2c[nH]c3ncnc(N4CCOCC4)c23)c1 b0
4) COc1c(OCCCN2CCOCC2)ccc2c1N=C(NC(=O)c1cnc(N)nc1)N1CCN=C21 b1
5) CCn1c(CNC(=O)c2nc(Cl)cnc2N)[n+](CC)c2ccc(C(=O)N(C)CCN(C)C)cc21 b1
6) Cc1nc2ccc(Oc3ccc(F)cc3)cc2c(=O)n1C[C@H]1CCCN(C(C)C)C1 b2
7) O=C(Cc1ccccc1)Nc1nnc(N2CC[C@@H]3[C@H]2CN3c2cccnn2)s1 b0

###

assayed_system: Bromodomain-containing protein 4 (Homo sapiens)
stated_conditions: Compound concentration 20.0 uM, Protein concentration 2.0 uM, Result type QC Liability
If the reported ΔTm equals or exceeds -2 °C, assign y. If not, assign n.

compound	assayed_system	cat
C=CC[C@@H]1/C=C(\C)C[C@H](C)C[C@H](OC)[C@H]2O[C@@](O)(C(=O)C(=O)N3CCCC[C@H]3C(=O)O[C@H](/C(C)=C/[C@@H]3CC[C@@H](O)[C@H](OC)C3)[C@H](C)[C@@H](O)CC1=O)[C@H](C)C[C@@H]2OC	Bromodomain-containing protein 4 (Homo sapiens)	y
Cc1cccc(-c2nn3c(c2-c2ccnc4ccc(C(N)=O)cc24)CCC3)n1	Bromodomain-containing protein 4 (Homo sapiens)	n
O=C(O)c1cc2cc(Cc3cccnc3)ccc2o1	Bromodomain-containing protein 4 (Homo sapiens)	y
CC(C(=O)Nc1cc(C#N)ccc1CCCC(=O)O)c1ccc(F)c2ccccc12 (stereo not drawn)	Bromodomain-containing protein 4 (Homo sapiens)	y
Cn1cncc1-c1cn(-c2cccc(C(=O)Nc3cccc(C(F)(F)F)c3)c2)nn1	Bromodomain-containing protein 4 (Homo sapiens)	n
CCn1c(=O)c2c(C)c(C(=O)N3CCC(O)CC3)sc2n(CCC(F)(F)F)c1=O	Bromodomain-containing protein 4 (Homo sapiens)	n
O=C(N[C@H](Cc1ccccc1)C(=O)O)c1cccc(OCc2cccnc2)c1	Bromodomain-containing protein 4 (Homo sapiens)	y
CCOC(=O)Nc1ccc2c(c1)N(C(=O)CN(CC)CC)c1ccccc1CC2	Bromodomain-containing protein 4 (Homo sapiens)	y
COCCc1ccc(-c2c(C)nc3c(N4CCOCC4)ccnn23)cn1	Bromodomain-containing protein 4 (Homo sapiens)	y
CCOCCn1cc(C(=O)Nc2ccc(-n3nc(-c4cccnc4)cc3C(F)(F)F)cn2)ccc1=O	Bromodomain-containing protein 4 (Homo sapiens)	n
O=C1CN(c2ccccc2F)C(NCCN2CCOCC2)=C1c1nc2cc(Br)ccc2c(=O)[nH]1	Bromodomain-containing protein 4 (Homo sapiens)	n
CNC(=O)COc1cc2cc(Nc3nc(N4CCC(C(=O)N(C)C)CC4)ncc3Cl)cc(OC)c2n(C)c1=O	Bromodomain-containing protein 4 (Homo sapiens)	y
Nc1nccc(-c2c(-c3ccc(F)cc3)ncn2C2CCN(Cc3ccon3)CC2)n1	Bromodomain-containing protein 4 (Homo sapiens)	n
CN[C@@H](C)C(=O)N[C@H](C(=O)N1CCC[C@H]1C(=O)N[C@@H]1CCCc2ccccc21)C1CCCCC1	Bromodomain-containing protein 4 (Homo sapiens)	n
O=C(Cc1ccccc1)Nc1nnc(N2C[C@H]3C[C@@H]2CN3c2cccnn2)s1	Bromodomain-containing protein 4 (Homo sapiens)	y
O=C1NC(=NCc2cccs2)SC1=Cc1ccc2ncccc2c1	Bromodomain-containing protein 4 (Homo sapiens)	y
CC(=O)c1ccc2c(c1)/C(=C(/Nc1cccc(C#N)c1)c1ccc3c(c1)OCCO3)C(=O)N2	Bromodomain-containing protein 4 (Homo sapiens)	y
Cc1ccc(C(=O)Nc2cc(N3CCN(C)CC3)cc(C(F)(F)F)c2)cc1-n1cc(-c2cnn(C)c2C)nn1	Bromodomain-containing protein 4 (Homo sapiens)	n
